The measured values listed here are drawn from ChEMBL document CHEMBL3046080.

Assay System: aromatase (CYP19) (Homo sapiens)
Sequence (P11511 whole entry): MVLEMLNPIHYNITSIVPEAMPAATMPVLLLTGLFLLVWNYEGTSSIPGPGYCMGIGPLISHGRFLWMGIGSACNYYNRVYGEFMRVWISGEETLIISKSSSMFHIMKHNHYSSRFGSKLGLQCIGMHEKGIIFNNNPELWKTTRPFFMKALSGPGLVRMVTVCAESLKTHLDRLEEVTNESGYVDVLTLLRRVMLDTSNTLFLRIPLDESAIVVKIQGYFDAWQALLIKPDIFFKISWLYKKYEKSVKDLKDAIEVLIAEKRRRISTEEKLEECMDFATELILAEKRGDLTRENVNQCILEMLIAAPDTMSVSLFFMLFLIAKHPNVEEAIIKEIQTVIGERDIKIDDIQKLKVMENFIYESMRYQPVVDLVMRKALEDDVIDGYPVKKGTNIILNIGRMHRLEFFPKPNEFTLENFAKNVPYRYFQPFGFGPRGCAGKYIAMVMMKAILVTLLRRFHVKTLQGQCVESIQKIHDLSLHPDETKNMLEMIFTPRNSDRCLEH
Measurement Notes: Inhibition of aromatase in Homo sapiens (human) placental microsome assessed as tritiated H2O release from [1-beta-3H] androstenedione substrate at 5 uM preincubated with substrate for 5 min prior to enzyme addition measured after 20 min by beta-scintillation counting analysis
Parameters: species or system Placenta
Condition Set: placental microsomes, probe [1-beta-3H] androstenedione
Property: inhibition at 20 min, 5 µM (%)
Number only, in %; omit the unit.

>>> print(df.to_string())
                               given_smiles                    property  reported_value
0  C[C@]12CC[C@H](O)CC1=CC[C@@H]1[C@@H]2CC[C@]2(C)C(=O)/C(=C/c3ccc(OCCCn4ccnc4)cc3)C[C@@H]12  inhibition at 20 min, 5 µM             4.1

Kindly consider the entry below.
Sample C[C@]12CC[C@H](O)CC1=CC[C@@H]1[C@@H]2CC[C@]2(C)C(=O)/C(=C/c3ccc(OCCCCl)cc3)C[C@@H]12 — what was its inhibition at 20 min, 5 µM?
0.2

----------
// endpoint IC50 / system Aromatase (Homo sapiens)
Number only, in µM; omit the unit.

                               given_smiles  endpoint_unit  reported_value
0  C[C@]12CCC(=O)C=C1CC[C@@H]1[C@@H]2CC[C@]2(C)C(=O)/C(=C/c3ccc(OCCCn4ccnc4)cc3)C[C@@H]12             µM            11.9

Sample C[C@]12CC[C@H]3[C@@H](CC=C4C[C@@H](O)CC[C@@]43C)[C@@H]1C/C(=C\c1cccc(OCCCn3ccnc3)c1)[C@@H]2O — what was its IC50?
9.1
